# experimentalSystem: His6-AspH315–758 (human aspartate/asparagine-β-hydroxylase, AspH) (Homo sapiens)
# Construct: N-Terminally His6-tagged human AspH315–758 (His6-AspH315–758) was produced in E. coli BL21 (DE3) cells; made in house; host or cells: E. coli BL21 (DE3), pET-28a(+) vector
# Sequence (Q12797 315-758): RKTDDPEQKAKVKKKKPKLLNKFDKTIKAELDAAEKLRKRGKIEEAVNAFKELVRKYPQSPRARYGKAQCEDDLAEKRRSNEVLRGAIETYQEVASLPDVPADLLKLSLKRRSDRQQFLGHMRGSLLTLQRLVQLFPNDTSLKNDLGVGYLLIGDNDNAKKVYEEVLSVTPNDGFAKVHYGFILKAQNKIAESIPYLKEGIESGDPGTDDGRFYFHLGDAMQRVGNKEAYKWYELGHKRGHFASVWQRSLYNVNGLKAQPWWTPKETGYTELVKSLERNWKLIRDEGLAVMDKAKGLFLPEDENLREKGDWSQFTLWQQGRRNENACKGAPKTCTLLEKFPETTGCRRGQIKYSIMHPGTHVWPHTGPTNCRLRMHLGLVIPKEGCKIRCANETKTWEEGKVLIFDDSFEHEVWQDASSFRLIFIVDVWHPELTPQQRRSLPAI
# assayName: SPE-MS AspH inhibition assay (LOPAC screen at fixed 20 μM and IC50 dose-response), hydroxylation of cyclic peptide hFX-CP101–119
# Format: biochemical
# experimentalSetup: LOPAC compound at fixed 20 uM; substrate conversion, plate 1
Some molecules, each annotated with its measured Plate 1 (% conversion).
Respond with the bare value in %.

Worked examples follow.
molecule	measuredProperty	measurementUnits	reportedValue
Nc1ccc2c3c(cccc13)C(=O)NC2=O [4-Amino-1,8-naphthalimide]	Plate 1 (% conversion)	%	36.21
CC(=O)NBr [N-Bromoacetamide]	Plate 1 (% conversion)	%	11.81
CCCCC#Cc1nc(NC)c2ncn([C@@H]3O[C@H](CO)[C@@H](O)[C@H]3O)c2n1	Plate 1 (% conversion)	%	28.88
CN(C)CCC(c1ccc(Cl)cc1)c1ccccn1.O=C(O)/C=C\C(=O)O (racemic) [(±)-Chlorpheniramine maleate]	Plate 1 (% conversion)	%	37.99
C[C@]12CCC(=O)C=C1CC[C@@H]1[C@@H]2C(=O)C[C@@]2(C)[C@H]1CC[C@]2(O)C(=O)CO	Plate 1 (% conversion)	%	38.71
Br.Br.N=C(N)SCCN	Plate 1 (% conversion)	%	40.50

*Q* Look up and state reported Plate 1 (% conversion) for C[C@H](Cc1ccc(OCC(=O)[O-])cc1)NC[C@H](O)c1cccc(Cl)c1.[Na+] [BRL 37344 sodium]
*A* 34.52

*Q* Look up and state reported Plate 1 (% conversion) for CC(=O)Oc1ccccc1C(=O)O
*A* 36.04

*Q* Look up and state reported Plate 1 (% conversion) for Br.C=CCN1CCc2c(cc(O)c(O)c2Br)[C@@H](c2ccccc2)C1 [R(+)-6-Bromo-APB hydrobromide, reference compound]
*A* 3.97

*Q* Look up and state reported Plate 1 (% conversion) for C=CC[C@H](N)C(=O)O
*A* 35.78

*Q* Look up and state reported Plate 1 (% conversion) for NS(=O)(=O)c1cc2c(cc1Cl)N=CNS2(=O)=O [Chlorothiazide]
*A* 37.37
